Cited source for all entries: patent US9408393B2

Test system: Staphylococcus aureus (SA, MRSA)
Assay: Single-point BisEDT-antibiotic combination FICI
Assay type: cell-based
Conditions: MRSA 773
FICI, single-point BisEDT-antibiotic combination values for the compounds below.
reported property: FICI, single-point BisEDT-antibiotic combination

| mol | measured |
| --- | --- |
| NC[C@H]1O[C@H](O[C@H]2[C@H](O)[C@@H](O[C@H]3O[C@H](CO)[C@@H](O)[C@H](N)[C@H]3O)[C@H](N)C[C@@H]2N)[C@H](N)C[C@@H]1O | 0.78 |
| C[C@H]1COc2c(N3CCN(C)CC3)c(F)cc3c(=O)c(C(=O)O)cn1c23 | 1.11 |
| CC[C@H]1OC(=O)[C@H](C)[C@@H](O[C@H]2C[C@@](C)(OC)[C@@H](O)[C@H](C)O2)[C@H](C)[C@@H](O[C@@H]2O[C@H](C)C[C@H](N(C)C)[C@H]2O)[C@](C)(O)C[C@@H](C)C(=O)[C@H](C)[C@@H](O)[C@]1(C)O | 0.67 |
| CN(C)c1ccc(O)c2c1C[C@H]1C[C@H]3[C@H](N(C)C)C(O)=C(C(N)=O)C(=O)[C@@]3(O)C(O)=C1C2=O | 1.23 |
| [H]/N=C(/N)N[C@H]1[C@H](O)[C@@H](O)[C@H](O[C@@H]2O[C@@H](C)[C@](O)(C=O)[C@H]2O[C@@H]2O[C@@H](CO)[C@H](O)[C@@H](O)[C@@H]2NC)[C@@H](N/C(N)=N\[H])[C@@H]1O | 0.95 |
| Cc1onc(-c2ccccc2)c1C(=O)N[C@@H]1C(=O)N2[C@@H]1SC(C)(C)[C@@H]2C(=O)O | 2.28 |
| CCN1CCN(C(=O)N[C@@H](C(=O)N[C@@H]2C(=O)N3[C@@H]2SC(C)(C)[C@@H]3C(=O)O)c2ccccc2)C(=O)C1=O | 1.28 |
| CC(=O)NC[C@H]1CN(c2ccc(N3CCOCC3)c(F)c2)C(=O)O1 | 1.23 |
| C[C@@H](O)[C@H]1C(=O)N2C(C(=O)O)=C(SCCN=CN)C[C@H]12 | 1.48 |
| CO/N=C(\C(=O)N[C@@H]1C(=O)N2C(C(=O)O)=C(COC(N)=O)CS[C@H]12)c1ccco1 | 4.23 |
